B1: RAB11A (parent)
chain: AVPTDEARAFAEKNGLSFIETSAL

Variants of: B1
assaySummary: protein stability index of a GFP-peptide fusion (GPS, HEK-293T) (PSI 1-6); higher = more stable;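 further: lentivirally expressed fusions sorted by FACS into six bins by GFP to DsRed ratio, PSI derived from sequencing read proportions per bin multiplied by bin number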
conditionDetails: c terminus: a fixed tail appended
outcomeMeasure: protein stability index
Please state the value as a number alone, without comment.

sequenceData	protein stability index
AVPIDEARAFAEKNGLSFIETSAL	2.28
AVTTDEARAFAEKNGLSFIETSAL	2.81
AVCTDEARAFAEKNGLSFIETSAL	1.67
AVPTDEARAFAEVNGLSFIETSAL	2.23

Q. Complete the entry with protein stability index for "AVPTDEARAFAEKNGLSFIETSAG"
A. 5.05

Q. Complete the entry with protein stability index for "AVPTDEARAFAEKNGLSFIETSAY"
A. 3.04

Q. Complete the entry with protein stability index for "AVPTDEARAFAEKNPLSFIETSAL"
A. 2.2

Q. Complete the entry with protein stability index for "AVPTDEARAFAEKNGLSLIETSAL"
A. 4.14

Q. Complete the entry with protein stability index for "AVPTDEARAFAEKNGLSFIEFSAL"
A. 2.37

Q. Complete the entry with protein stability index for "AVPADEARAFAEKNGLSFIETSAL"
A. 2.04

Q. Complete the entry with protein stability index for "AVPTDEARAFAEKNGLSFIETCAL"
A. 2.54

Q. Complete the entry with protein stability index for "AVPTDEARQFAEKNGLSFIETSAL"
A. 2.62

Q. Complete the entry with protein stability index for "AVPTDEARAFAKKNGLSFIETSAL"
A. 1.81

Q. Complete the entry with protein stability index for "AVPRDEARAFAEKNGLSFIETSAL"
A. 2.02

Q. Complete the entry with protein stability index for "AVPTDEAYAFAEKNGLSFIETSAL"
A. 1.99
